# Test system: Streptococcus pneumoniae
# experimental protocol: Antibacterial activity against Streptococcus pneumoniae PBS1399 infected in mouse assessed as protection against bacterial infection by measuring mouse survival administered intravenously as single dose after 2 hrs of infection measured on day 7
# Type: functional
# stated conditions: PBS1399, iv, read-out: PD50
Measured ED50, listed per entry.
quantity measured: ED50 (mg/kg)

• C[C@H]1c2cccc(O)c2C(=O)C2=C(O)[C@]3(O)C(=O)C(C(N)=O)=C(O)[C@@H](N(C)C)[C@@H]3[C@@H](O)[C@@H]21.O = 10.3
• CN(C)c1ccc(O)c2c1C[C@H]1C[C@H]3[C@H](N(C)C)C(O)=C(C(N)=O)C(=O)[C@@]3(O)C(O)=C1C2=O = 3.44
• CN[C@H](CC(C)C)C(=O)N[C@H]1C(=O)N[C@@H](CC(N)=O)C(=O)N[C@H]2C(=O)N[C@H]3C(=O)N[C@H](C(=O)N[C@H](C(=O)O)c4cc(O)cc(O)c4-c4cc3ccc4O)[C@H](O)c3ccc(c(Cl)c3)Oc3cc2cc(c3O[C@@H]2O[C@H](CO)[C@@H](O)[C@H](O)[C@H]2O[C@H]2C[C@](C)(N)[C@H](O)[C@H](C)O2)Oc2ccc(cc2Cl)[C@H]1O = 3.3
• CN(C)c1cc(NC(=O)CNC(C)(C)C)c(O)c2c1C[C@H]1C[C@H]3[C@H](N(C)C)C(O)=C(C(N)=O)C(=O)[C@@]3(O)C(O)=C1C2=O = 0.91

---

# experimental protocol: Cmax in human at 100 mg, iv administered as infusion
# Format: ADME, organism-based
# Design: dose 100 mg, route intravenous
# stated conditions: in vivo
quantity measured: Cmax (ng/mL)

* CN(C)c1cc(CNCC(C)(C)C)c(O)c2c1C[C@H]1C[C@H]3[C@H](N(C)C)C(O)=C(C(N)=O)C(=O)[C@@]3(O)C(O)=C1C2=O.Cl | 1800

---

# experimental protocol: AUC(0 to 24 hrs) in human at 1.5 mg/kg, iv q24h
# Assay type: ADME, organism-based
# Set-up: dose 1.5 mg/kg, time < 24 hr, route intravenous
# stated conditions: in vivo
quantity measured: AUC at 24 h (ng·h/mL)

• CN(C)[C@@H]1C(O)=C(C(N)=O)C(=O)[C@@]2(O)C(O)=C3C(=O)c4c(O)c(NC(=O)CN5CCCC5)cc(F)c4C[C@H]3C[C@@H]12 [ERAVACYCLINE] = 7900

---

# experimental protocol: Cmax in human at 300 mg, po
# Type: ADME
# Set-up: dose 300 mg, route oral
# stated conditions: in vivo
quantity measured: Cmax (ng/mL)

* CN(C)c1cc(CNCC(C)(C)C)c(O)c2c1C[C@H]1C[C@H]3[C@H](N(C)C)C(O)=C(C(N)=O)C(=O)[C@@]3(O)C(O)=C1C2=O.Cl | 700
* CN(C)c1cc(CNCC(C)(C)C)c(O)c2c1C[C@H]1C[C@H]3[C@H](N(C)C)C(O)=C(C(N)=O)C(=O)[C@@]3(O)C(O)=C1C2=O.Cc1ccc(S(=O)(=O)O)cc1 [OMADACYCLINE TOSYLATE] | 540

---

# target or system: OATP1B1 (Homo sapiens, UniProt Q9Y6L6)
# Sequence (Q9Y6L6 whole entry): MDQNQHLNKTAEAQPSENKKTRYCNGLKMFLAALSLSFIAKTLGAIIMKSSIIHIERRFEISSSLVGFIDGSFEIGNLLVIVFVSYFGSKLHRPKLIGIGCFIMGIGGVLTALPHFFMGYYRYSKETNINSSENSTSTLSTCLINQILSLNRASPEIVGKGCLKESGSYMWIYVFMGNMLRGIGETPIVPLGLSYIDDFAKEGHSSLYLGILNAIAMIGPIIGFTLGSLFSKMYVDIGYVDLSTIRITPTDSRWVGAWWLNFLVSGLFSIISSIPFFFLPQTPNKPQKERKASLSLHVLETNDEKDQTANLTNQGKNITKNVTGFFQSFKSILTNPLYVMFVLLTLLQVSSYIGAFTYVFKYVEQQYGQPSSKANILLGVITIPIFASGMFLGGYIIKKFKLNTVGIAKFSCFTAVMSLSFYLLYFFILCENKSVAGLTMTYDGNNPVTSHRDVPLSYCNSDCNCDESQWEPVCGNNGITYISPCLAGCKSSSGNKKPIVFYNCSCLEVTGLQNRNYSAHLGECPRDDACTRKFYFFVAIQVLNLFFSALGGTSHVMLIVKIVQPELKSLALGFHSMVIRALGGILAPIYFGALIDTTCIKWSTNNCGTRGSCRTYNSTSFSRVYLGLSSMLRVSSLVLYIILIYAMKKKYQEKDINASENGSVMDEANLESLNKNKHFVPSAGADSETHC
# experimental protocol: Inhibition of OATP1B1 (unknown origin) in HEK293 cells at 100 uM
# Assay type: cell-based
# stated conditions: HEK293 cells expressing OATP1B1
quantity measured: inhibition at 100 µM (%)

* CN(C)c1cc([14CH2]NCC(C)(C)C)c(O)c2c1C[C@H]1C[C@H]3[C@H](N(C)C)C(O)=C(C(N)=O)C(=O)[C@@]3(O)C(O)=C1C2=O | 10.1

---

# experimental protocol: Oral bioavailability in human 300 mg
# Assay type: ADME, organism-based
# stated conditions: in vivo
quantity measured: bioavailability (%)

• CN(C)c1cc(CNCC(C)(C)C)c(O)c2c1C[C@H]1C[C@H]3[C@H](N(C)C)C(O)=C(C(N)=O)C(=O)[C@@]3(O)C(O)=C1C2=O.Cc1ccc(S(=O)(=O)O)cc1 [OMADACYCLINE TOSYLATE] = 34.5
• CN(C)c1cc(CNCC(C)(C)C)c(O)c2c1C[C@H]1C[C@H]3[C@H](N(C)C)C(O)=C(C(N)=O)C(=O)[C@@]3(O)C(O)=C1C2=O.Cl = 34.5

---

# experimental protocol: Half life in human at 300 mg, po
# stated conditions: in vivo
quantity measured: half-life (h)

- CN(C)c1cc(CNCC(C)(C)C)c(O)c2c1C[C@H]1C[C@H]3[C@H](N(C)C)C(O)=C(C(N)=O)C(=O)[C@@]3(O)C(O)=C1C2=O.Cc1ccc(S(=O)(=O)O)cc1 [OMADACYCLINE TOSYLATE]: 17

---

# experimental protocol: Systemic clearance in human at 1.5 mg/kg, iv q24h or 100 mg, po q12h
# Format: ADME, organism-based
# stated conditions: in vivo
quantity measured: clearance (mL/min)

- CN(C)[C@@H]1C(O)=C(C(N)=O)C(=O)[C@@]2(O)C(O)=C3C(=O)c4c(O)c(NC(=O)CN5CCCC5)cc(F)c4C[C@H]3C[C@@H]12: 297

---

Measured MIC, listed per entry.
# Tested on: Haemophilus influenzae
# experimental protocol: Antibacterial activity against Haemophilus influenzae PBS981
# Assay type: functional
quantity measured: MIC (µg/mL)

* CN(C)c1cc(CNCC(C)(C)C)c(O)c2c1C[C@H]1C[C@H]3[C@H](N(C)C)C(O)=C(C(N)=O)C(=O)[C@@]3(O)C(O)=C1C2=O [OMADACYCLINE] | 1
* CN(C)c1cc(NC(=O)CNC(C)(C)C)c(O)c2c1C[C@H]1C[C@H]3[C@H](N(C)C)C(O)=C(C(N)=O)C(=O)[C@@]3(O)C(O)=C1C2=O [TIGECYCLINE] | 0.25

---

# experimental protocol: Protein binding in human plasma at 0.1 to 10 ug/ml
# Assay type: ADME, cell-free
# stated conditions: read-out: PPB (converted)
quantity measured: fraction unbound

- CN(C)c1cc(CNCC(C)(C)C)c(O)c2c1C[C@H]1C[C@H]3[C@H](N(C)C)C(O)=C(C(N)=O)C(=O)[C@@]3(O)C(O)=C1C2=O.Cl: 0.79

---

# experimental protocol: Volume of distribution in human at 100 mg, iv or 300 mg, po
# Assay type: ADME, organism-based
# stated conditions: in vivo
quantity measured: Vd

• CN(C)c1cc(CNCC(C)(C)C)c(O)c2c1C[C@H]1C[C@H]3[C@H](N(C)C)C(O)=C(C(N)=O)C(=O)[C@@]3(O)C(O)=C1C2=O.Cl = 333 to 640 L

---

# Tested on: Streptococcus pneumoniae
# experimental protocol: Antibacterial activity against Streptococcus pneumoniae PBS1399 infected in mouse assessed as protection against bacterial infection by measuring mouse survival administered intravenously as single dose after 2 hrs of infection measured on day 7
# Format: functional
# stated conditions: PBS1399, iv, read-out: PD50
Measured ED50, listed per entry.
quantity measured: ED50 (mg/kg)

- CO/N=C(\C(=O)N[C@@H]1C(=O)N2C(C(=O)O)=C(CSc3nc(=O)c(O)nn3C)CS[C@H]12)c1csc(N)n1: 0.37
- CN(C)c1cc(CNCC(C)(C)C)c(O)c2c1C[C@H]1C[C@H]3[C@H](N(C)C)C(O)=C(C(N)=O)C(=O)[C@@]3(O)C(O)=C1C2=O: 1.5
- CC(=O)NC[C@H]1CN(c2ccc(N3CCOCC3)c(F)c2)C(=O)O1: 38.8
- CC[C@H]1OC(=O)[C@H](C)[C@@H](O[C@H]2C[C@@](C)(OC)[C@@H](O)[C@H](C)O2)[C@H](C)[C@@H](O[C@@H]2O[C@H](C)C[C@H](N(C)C)[C@H]2O)[C@](C)(O)C[C@@H](C)CN(C)[C@H](C)[C@@H](O)[C@]1(C)O: 3.31
